Experiment: Phase 1 open-label drug interaction study: effect of ketoconazole on the pharmacokinetics of NBI-98854 in healthy subjects
Assay type: in vivo, human
Details: both sexes, human, plasma, oral; 200 mg ketoconazole bid; Days 5 to 9 at 1 hour postdose; read-out: Mean plasma concentrations of ketoconazole
MEASURED_PARAMETER: concentration at 1 h

Data point: CC(=O)N1CCN(c2ccc(OCC3COC(Cn4ccnc4)(c4ccc(Cl)cc4Cl)O3)cc2)CC1 (stereo not shown) [Ketoconazole, ketoconazole, reference compound] ; concentration at 1 h = 1640 to 5180 ng/mL

====

Experiment: Phase 1 open-label drug interaction study: effect of ketoconazole on the pharmacokinetics of NBI-98854 in healthy subjects
Format: in vivo, human
Details: both sexes, human, oral; analyte NBI-98854 in plasma; NBI-98854 (80 mg) + Ketoconazole (200 mg), N = 24; read-out: MRT Mean (SD)
MEASURED_PARAMETER: MRT (h)
Output spec: scalar in h, unitless text.

Data point: `COc1cc2c(cc1OC)[C@H]1C[C@@H](OC(=O)[C@@H](N)C(C)C)[C@H](CC(C)C)CN1CC2` ; MRT = 22

====

Experiment: Phase 1 open-label drug interaction study: effect of ketoconazole on the pharmacokinetics of NBI-98854 in healthy subjects
Format: in vivo, human
Details: both sexes, human, plasma, oral, analyte NBI-98854 in plasma; NBI-98854 (80 mg) + Ketoconazole (200 mg), N = 24; read-out: AUC0-24 Mean (SD)
Description: All subjects received the same treatment. […] Subjects were given meals upon completion of study assessments/dosing and at regular meal times during their stay in the research unit. […] Blood specimens to determine ketoconazole plasma concentrations were collected predose through Day 9. Safety and tolerability was assessed through Day 10. […] The tmax was analyzed using non-parametric methods. […] Safety data were summarized using descriptive statistics.
MEASURED_PARAMETER: AUC(0-t) (ng·h/mL)
Output spec: scalar in ng·h/mL, unitless text.

Data point: `COc1cc2c(cc1OC)[C@H]1C[C@@H](OC(=O)[C@@H](N)C(C)C)[C@H](CC(C)C)CN1CC2` ; AUC(0-t) = 4820

====

Test: Phase 1 open-label drug interaction study: effect of ketoconazole on the pharmacokinetics of NBI-98854 in healthy subjects
Type: in vivo, human
Details: both sexes, human, plasma, oral, 50 mg, analyte NBI-98854 in plasma; NBI-98854 (50 mg) alone, N = 24; read-out: AUC0-tlast Mean (SD)
MEASURED_PARAMETER: AUC(0-t)
Form entry: enter the amount, then its unit.

Data point: COc1cc2c(cc1OC)[C@H]1C[C@@H](OC(=O)[C@@H](N)C(C)C)[C@H](CC(C)C)CN1CC2 [NBI-98854] ; AUC(0-t) = 3420 ng·h/mL

====

Assay: Phase 1 open-label drug interaction study: effect of ketoconazole on the pharmacokinetics of NBI-98854 in healthy subjects
Format: in vivo, human
Settings: both sexes, human, oral; analyte NBI-136110 in plasma; NBI-98854 (50 mg) alone, N = 24; read-out: MRT Mean (SD)
Experimental: All subjects received the same treatment. […] Subjects were given meals upon completion of study assessments/dosing and at regular meal times during their stay in the research unit. […] Blood specimens to determine ketoconazole plasma concentrations were collected predose through Day 9. Safety and tolerability was assessed through Day 10. […] The tmax was analyzed using non-parametric methods. […] Safety data were summarized using descriptive statistics.
MEASURED_PARAMETER: MRT (h)
Output spec: scalar in h, unitless text.

Data point: `COc1cc2c(cc1OC)[C@H]1C[C@@H](OC(=O)[C@@H](N)C(C)(C)O)[C@H](CC(C)C)CN1CC2` ; MRT = 40
